Subject of test: T1, human KLB and human FGFR1c co-expressed on HEK293/hKLB/hFGFR1c/SRE-luc cells (human, UniProt Q86Z14 1-1044; P11362 22-822)
T1 construct: two receptors co-expressed on one cell line; also called KLB/FGFR1c coreceptor; FGF21R
Test details: FACS on stable HEK293 cells
# binding ratio to unstained cells listing for each entry below
Kindly provide the numeric value in fold only, without the unit symbol.

H4H8837P (antibody, V domains shown, human IgG4 Fc (H4H prefix)) VH: QVQLVESGGGVVQPGRSLRLSCAASGFTFNSYAMHWVRQAPGMGLEWVAVISSDGSNKYYADSVRGRFTVSRDNSKNTLYLQMNSLRSEDTAVYYCAKDGRGYSSFSHFGMDVWGQGTTVTVSS VL: DIQMTQSPSTLSASVGDRVTITCRASQSIGSWLAWYQQKPGKAPKLLIYKTSSLESGVPSRFSGSGSGTEFTLTISSLQPDDFASYYCQQYNSYSFGQGTKVEIK = 33

// query binding ratio to unstained cells value for entry H2aM8091N (antibody, V domains shown, mouse IgG2 Fc (H2aM prefix); also called H2M8091N) VH: QVQLVQSGADMKKPGASVKVSCKASGYTFTTYGINWVRQAPGQGLEWMGWISAYSGITNYAQSFQGRVTMTTDTSTSTAYMELRSLRSDDTAVYYCARGGYNWATGDYFDYWGQGTLVTVSS VL: DIQMTQSPSTLSASIGDRVTITCRASQSISSWLAWYQQKPGKAPKFLIYKASSLASGVPSRFSGSGSGTEFTLTISSLQPDDFATYYCQQYDSYSPYTFGQGTKVEIK 37

// query binding ratio to unstained cells value for entry H4H8880P (antibody, V domains shown, human IgG4 Fc (H4H prefix)) VH: EVQLVESGGGVVQPGGSLRLSCAASGFTFSLYAMSWVRQAPGKGLEWVSAISGSAHGAYYADSVKGRFTISRDNSKNSLYLQMNSLRAEDTAIYYCAKDLVIAVAGTFDYWGQGTLVTVSS VL: DIQMTQSPSSLSASVGDRVTITCRASQIISTYLNWYQQKPGKAPKILIYTASSLKSGVPSRFSGSGSGTDFTLTISSLQPEDFATYYCQQTYSSPRFTFGPGTKVDIK 32

// query binding ratio to unstained cells value for entry H4H8871P (antibody, V domains shown, human IgG4 Fc (H4H prefix)) VH: QVQLQESGPGLVKPSETLSLTCTVSGASISSYYWSWIRQPPGKGLEWIGYIYSSGIIKYNPSLKSRVTISADTSKNQFSLKLSSVTAADTAVYYCARHGIFGVMEYFQRWGQGTLVTVSS VL: DIQMTQSPSSLSASIGDRVTITCQASQDIGNFLNWYHQKPGKAPTLLIYDASNMETGVPSRFRGSGSGTYFTFIISSLQPEDVATYYCQQYDNLPLTFGGGTKVEIK 33

// query binding ratio to unstained cells value for entry H2aM8098N (antibody, V domains shown, mouse IgG2 Fc (H2aM prefix)) VH: QLQLQESGPGLVKPSETLSLTCTVSGGSISSSNYYWDWIRQTPEKGLEWIGSIHYSGTSYYNPSLKSRVTISVDTSKNQFSLKLRSVTAADAAVYYCARQTSVYWYFDIWGHGTLVTVST VL: EIVLTQSPGTLSLSPGEGATLSCRASQSVRNNYLAWYQQKPGQAPRLLIYGASSRAIGIPDRFSGSGSGTDFTLTISRLEPKDFVVYYCQQYGGSLFTFGPGTKVDIK 23
